Where these numbers come from: PubChem BioAssay (Tox21)

# protocolNotes: Human pregnane X receptor (PXR) small molecule agonists, qHTS cell viability counter screen (AID 1346977); further: nearly all actives have a fitted effect of over 50% in size
# assayConditions: PXR-Luc HepG2 viability, CellTiter-Fluor, 24 h; series mostly up to 92.4 µM
Results filed as inconclusive are left out. Activity calls are given as the source filed them. The call rests on the fitted dose curve; in most records, active means well fitted cell-killing curve with a large enough effect in the repeat runs; inconclusive means weak or mixed curves, or effect the other way; inactive means flat fitted curve, though single readings scatter.
Possible outcomes: YES (active), NO (inactive)

[[record]]
compoundsmiles = "C[C@]12CC[C@H]3[C@@H](CCC4=CC(=O)CC[C@@]43C)[C@@H]1CC[C@@H]2O"
group = "NO"

[[record]]
compoundsmiles = "CC(C)(C)c1cc([N+](=O)[O-])cc(C(C)(C)C)c1O"
group = "YES"

[[record]]
compoundsmiles = "Cc1cc(C(F)(C(F)(F)F)C(F)(F)F)ccc1NC(=O)c1cccc(I)c1C(=O)NC(C)(C)CS(C)(=O)=O"
group = "NO"

[[record]]
compoundsmiles = "OC(c1ccc(Cl)cc1)(c1ccc(Cl)cc1)C(Cl)(Cl)Cl"
group = "NO"

[[record]]
compoundsmiles = "CC(=O)[O-].CC(=O)[O-].O.O.[Cd+2]"
group = "YES"


----------
# protocolNotes: qHTS assay to identify small molecule antagonists of the estrogen related receptor signaling pathway with the pleiotropic PPARgamma coactivator (PGC) from Tox21 10K library (AID 1224841); further: actives are mostly falling curves and most rising ones were filed inactive; nearly all actives have a fitted effect of over 50% in size
# assayConditions: PGC/ERR reporter cell line, ONE-Glo luciferase, 18 h; series mostly up to 92.4 µM
Results filed as inconclusive are left out. Calls of active or inactive are those of the source. The rule behind the calls is not given here.
Possible outcomes: active, inactive

[[record]]
compound = "[Cl][Sn]([c]1ccccc1)([c]1ccccc1)[c]1ccccc1"
group = "active"

[[record]]
compound = "ClC1=C(Cl)[C@]2(Cl)[C@@H]3[C@@H](Cl)[C@H](Cl)C[C@@H]3[C@@]1(Cl)C2(Cl)Cl"
group = "inactive"

[[record]]
compound = "CCc1cc(C)cc(CC)c1-c1c(OC(=O)C(C)(C)C)n2n(c1=O)CCOCC2"
group = "active"

[[record]]
compound = "COP(=O)(CCC(=O)NCO)OC"
group = "inactive"

[[record]]
compound = "Cc1cc(N=Nc2ccccc2C)ccc1N"
group = "inactive"

[[record]]
compound = "ClC(Cl)=C(c1ccc(Cl)cc1)c1ccc(Cl)cc1"
group = "inactive"

[[record]]
compound = "COc1cccc(C(=O)CCN[C@@H](C)[C@H](O)c2ccccc2)c1"
group = "inactive"

[[record]]
compound = "CC(Cc1ccc(C(C)(C)C)cc1)CN1C[C@@H](C)O[C@@H](C)C1 (stereo partly specified)"
group = "inactive"

[[record]]
compound = "CC(=O)C(Cl)(Cl)Cl"
group = "active"

[[record]]
compound = "ClC1=C(Cl)[C@]2(Cl)[C@@H]3[C@@H](Cl)[C@@H](Cl)C[C@@H]3[C@@]1(Cl)C2(Cl)Cl"
group = "inactive"

[[record]]
compound = "CC(C)C1CCC(Cc2ccc(Cl)cc2)C1(O)Cn1cncn1 (stereo unspecified)"
group = "active"


----------
# protocolNotes: qHTS assay for small molecules that induce genotoxicity in human embryonic kidney cells expressing luciferase-tagged ATAD5 - cell viability (AID 651634); further: nearly all actives have a fitted effect of over 25% in size
# assayConditions: HEK293T ATAD5-luc cells viability, CellTiter-Fluor, 15.5 h; series mostly up to 83.3 µM
# Description: National Center for Advancing Translational Sciences [NCATS] NIH Chemical Genomics Center [NCGC] U.S. Environmental Protection Agency [EPA] National Institutes of Environmental Health Sciences [NIEHS] National Toxicology Program [NTP] U.S. Food and Drug Administration [FDA] Enhanced Level of Genome Instability Gene 1 (ELG1; human ATAD5) protein levels increase in response to various types of DNA damage. […]
Records with an inconclusive call do not appear. Activity calls are given as the source filed them. Calls follow the shape of the full dose curve.
Possible outcomes: label 1 = active, label 0 = inactive

[[record]]
compound = "CCc1nn(C)c(C(=O)NCc2ccc(C(C)(C)C)cc2)c1Cl"
group = "label 0"

[[record]]
compound = "CC(=O)[O-].CC(=O)[O-].[Hg+2]"
group = "label 1"

[[record]]
compound = "Cc1cc(C)cc(OP(=O)(Oc2cc(C)cc(C)c2)Oc2cc(C)cc(C)c2)c1"
group = "label 0"

[[record]]
compound = "BrC(Br)C(Br)(Br)Br"
group = "label 0"

[[record]]
compound = "CCOc1cc(C(C)(C)C)ccc1C1COC(c2c(F)cccc2F)=N1 (stereo unspecified)"
group = "label 0"

[[record]]
compound = "COc1ccc(OC)c(CC(C)N)c1 (stereo unspecified)"
group = "label 0"

[[record]]
compound = "Clc1ccc(-c2ccc(Cl)c(Cl)c2Cl)c(Cl)c1Cl"
group = "label 0"

[[record]]
compound = "CC(C)CC(C)N (stereo unspecified)"
group = "label 0"

[[record]]
compound = "CC(=O)[O-].CC(=O)[O-].O.O.[Cd+2]"
group = "label 1"

[[record]]
compound = "O=[N+]([O-])c1cc(C(F)(F)F)c(Cl)c([N+](=O)[O-])c1Cl"
group = "label 1"

[[record]]
compound = "S=C(SSC(=S)N1CCCCC1)N1CCCCC1"
group = "label 0"

[[record]]
compound = "CC(C)OC(=S)S"
group = "label 0"

[[record]]
compound = "CC1(C)[C@H](C(=O)O[C@H](C#N)c2cccc(Oc3ccccc3)c2)[C@@H]1/C=C(\\Cl)C(F)(F)F"
group = "label 0"

[[record]]
compound = "O=S(=O)(c1ccc(Cl)cc1)c1ccc(Cl)cc1"
group = "label 0"

[[record]]
compound = "C=CCC1=C(C)C(OC(=O)C2C(C=C(C)C)C2(C)C)CC1=O (stereo unspecified)"
group = "label 0"

[[record]]
compound = "CC(C)CCCCCOC(=O)c1ccccc1C(=O)OCCCCCC(C)C"
group = "label 0"

[[record]]
compound = "Cc1cc(C)c(C2=C(OC(=O)CC(C)(C)C)C3(CCCC3)OC2=O)c(C)c1"
group = "label 0"

[[record]]
compound = "FC(Cl)(Cl)Cl"
group = "label 0"

[[record]]
compound = "O=C(CCl)Nc1ccccc1"
group = "label 1"

[[record]]
compound = "ClC1=C(Cl)[C@]2(Cl)[C@@H]3[C@@H]4C[C@@H]([C@H]5O[C@@H]45)[C@@H]3[C@@]1(Cl)C2(Cl)Cl"
group = "label 0"

[[record]]
compound = "Nc1ccc(Cc2ccc(N)c(Cl)c2)cc1Cl"
group = "label 0"

[[record]]
compound = "CC1(C)CC/C(=C/c2ccc(Cl)cc2)C1(O)Cn1cncn1 (stereo unspecified)"
group = "label 0"

[[record]]
compound = "O=C/C(Cl)=C(/Cl)C(=O)O"
group = "label 0"

[[record]]
compound = "CCCSP(=O)(OCC)SCCC"
group = "label 0"

[[record]]
compound = "CCCCCCCCCCCCCCCCCCn1cc[n+](C)c1"
group = "label 0"

[[record]]
compound = "CCCCOCN(C(=O)CCl)c1c(CC)cccc1CC"
group = "label 0"

